# experimental_system: APP-Avi-soluble human LOX-1(61-273) (human, UniProt P78380 61-273)
# assay_notes: competition ELISA: oxLDL binding to plate-bound biotinylated human sLOX-1
value_type: IC50 (nM)
Output spec: scalar in nM, unitless text.

MOR022025 (antibody, human IgG1, lambda, L234A L235A, V domains shown, Human IgG1f LALA; also called MOR20225; MOR020225) VH: QVQLLESGGGLVQPGGSLRLSCAASGFTFSDYALHWVRQAPGKGLEWVSVISYQGGFIYYADSVKGRFTISRDNSKNTLYLQMNSLRAEDTAVYYCARSPGLTSYHDSWGQGTLVTVSS VL: QSVLTQPPSVSGAPGQRVTISCSGSSSNIGSNYVSWYQQLPGTAPKLLIHSTSHRPSGVPDRFSGSKSGTSASLAITGLQAEDEADYYCQSWDYESERVVFGGGTKLTVLG = 11
MOR020151 (antibody, human IgG1, lambda, L234A L235A, V domains shown, also called MOR20151) VH: QVQLVESGGGLVKPGGSLRLSCAASGFTFSSYALSWVRQAPGKGLEWVGRIKSKTMGGTSDYAAPVKGRFTISRDDSKNTLYLQMNSLKTEDTAVYYCARDFWADHYYYFDYWGQGTLVTVSS VL: DIALTQPASVSGSPGQSITISCTGTSSDVGYINYVNWYQQHPGKAPKLMIYEVSNRPSGVSNRFSGSKSGNTASLTISGLQAEDEADYYCASWDWYDNVVFGGGTKLTVLG = 7
MOR020133 (antibody, human IgG1, lambda, L234A L235A, V domains shown, also called MOR20133) VH: QVQLVQSGAEVKKPGESLKISCKGSGYSFTNYWIAWVRQMPGKGLEWMGRIFPGDSTTTYSPSFQGQVTISADKSISTAYLQWSSLKASDTAMYYCARGKRGATHPTQYEGWEVYGFDPWGQGTLVTVSS VL: DIELTQPPSVSVSPGQTASITCSGDALGGKYASWYQQKPGQAPVLVIYDDNKRPSGIPERFSGSNSGNTATLTISGTQAEDEADYYCQSWAFYSGVFGGGTKLTVLG = 6
MOR021468 (antibody, human IgG1, lambda, L234A L235A, V domains shown, also called MOR21468) VH: QVQLLESGGGLVQPGGSLRLSCAASGFTFSDYALHWVRQAPGKGLEWVSVISYAGGFKFYADSVKGRFTISRDNSKNTLYLQMNSLRAEDTAVYYCARSPGLTSYHDSWGQGTLVTVSS VL: DIVLTQPPSVSGAPGQRVTISCSGSSSNIGSNYVSWYQQLPGTAPKLLIHSNSHRPSGVPDRFSGSKSGTSASLAITGLQAEDEADYYCQSWDYESERVVFGGGTKLTVLG = 4.8

Measured IC50, MOR020052 (antibody, human IgG1, lambda, L234A L235A, V domains shown, also called MOR20052) VH: QVQLVQSGAEVKKPGSSVKVSCKASGGTFSDYAISWVRQAPGQGLEWMGGIIPGFGQANYAQKFQGRVTITADESTSTAYMELSSLRSEDTAVYYCAREPSPLYGPYSDYVMDPWGQGTLVTVSS VL: DIALTQPASVSGSPGQSITISCTGTSSDVGYFNFVSWYQQHPGKAPKLMIYDVSNRPSGVSNRFSGSKSGNTASLTISGLQAEDEADYYCASYGWDSSWVFGGGTKLTVLG : 12
